tested on: NCI-H522 lung; test: NCI tumour cell line growth inhibition, 48 h
*1 amine or outer side, *2 acyl side, *3 side chain or, on linkers, in order; H or OH if unused. Where a SMILES comes first, the peptide text is derived from it. Bridges are numbered along the chain shown (N, C = ends). Roman numbers before positions name the chains, in order. [ ]: non-standard residue; d: D form. Actinocin(9to1) = Cc1c2oc3c(C)ccc(C(=O)[*:1])c3nc-2c(C(=O)[*:2])c(N)c1=O; NMeF = CN[CH](Cc1ccccc1)C(=O)O; Sar = CNCC(=O)O
property: log10 of TGI (log10 of the value in µM)
In our notation, the value equals log10 of TGI in µM.

Reference set (2 entries):
compound | log10 of TGI
CC#Cc1nc(Nc2cc(C)[nH]n2)c2ccccc2n1 | 1.34
Oc1ccc(Cc2cc(Cl)cc(Cl)c2O)cc1Cl | 1.50

Consider the following items and state reported log10 of TGI for each.
1. Brc1ccc2c(-c3csc(-c4c[nH]c5ccccc45)n3)c[nH]c2c1
2. C=C1C(=O)O[C@H]2[C@H]1CC/C(COC(=O)NCc1ccc(Cn3c(=O)sn(-c4ccccc4)c3=O)cc1)=C\CC[C@@]1(C)O[C@@H]21
3. Cc1c2oc3c(C)ccc(C(=O)NC4C(=O)NC(C(C)C)C(=O)N5CCCC5C(=O)N(C)CC(=O)N(C)C(Cc5ccccc5)C(=O)OC4C)c3nc-2c(C(=O)NC2C(=O)NC(C(C)C)C(=O)N3CCCC3C(=O)N(C)CC(=O)N(C)C(Cc3ccccc3)C(=O)OC2C)c(N)c1=O (stereo not given) (I: TVP[Sar][NMeF] / II: TVP[Sar][NMeF]; ester I:1-I:C, II:1-II:C; linker I:N-II:N via Actinocin(9to1); configuration not given here)
4. Cn1cccc1/C=C/c1cc(Br)c(/C=C/c2cccn2C)cc1Br
5. Cc1ccc(Sc2cc3c(oc2=O)-c2ccccc2OC3O)cc1 (stereo not given)
6. S=c1[nH]c2ccc(I)cc2c(=S)n1Cc1ccccc1
7. CCCCCCCCCCCCCC(=O)N(CCCCCCCCC)CC(O)C(O)C(OC1OC(CO)C(O)C(O)C1O)C(O)CO (stereo not given)

[1.51, 0.54, -1.70, 1.45, 1.59, 1.22, 1.65]

Consider the following items and state reported log10 of TGI for each.
1. C=C1C(=O)OC2CC3(C)OC3CC/C(C)=C/C(OC(C)=O)C12 (stereo not given)
2. NC(CSSCC(N)Cc1ccccc1)Cc1ccccc1 (stereo not given)
3. COc1ccc(-c2nn(-c3ccc(NC(=O)Nc4ccc(Cl)c(C(F)(F)F)c4)cc3)cc2-c2ccncc2)cc1Cl
4. C=C(C(=O)O[C@H]1C(=O)C2=C(C)CCC3C(=C)C(=O)O[C@@H]3C2[C@]1(C)O)C1CC[C@]2(C)CCCC(=C)[C@H]2C1 (stereo not given in full)
5. CC(=O)[CH-]C(=O)c1ccccc1.CC(=O)[CH-]C(=O)c1ccccc1.CC[O-].O=C1c2ccccc2C(=O)c2c1ccc(O)c2[O-].[Ti+4]
6. COc1c(B(O)O)cc(F)cc1-c1nc2ccc3[nH]ncc3c2c2c1CCCC2
7. C/C(=N\NC(=S)N(C)C)c1ccccn1
8. COc1ccc2nc3cc(Cl)ccc3c(NCCNc3c4ccc(Cl)cc4nc4ccc(OC)cc34)c2c1

1: 0.42; 2: 1.49; 3: 0.60; 4: 0.93; 5: 1.78; 6: 1.07; 7: 0.30; 8: 0.51

For the record O=[N+]([O-])c1cccc2nccc(NCCCO)c12 , what value of log10 of TGI is listed for NCI-H522 lung? 1.30
